These measurements were taken from ChEMBL document CHEMBL3853354.

Items are presented alongside their recorded EC90.
tested on: Hepatitis C virus subtype 3a; assay: Inhibition of NS5A in HCV genotype 3a assessed as reduction in replicon RNA level after 3 days by cell based RT-PCR method

Solved entries:
Task: What measured EC90 goes with COC(=O)N[C@H](C(=O)N1CCC[C@H]1c1ncc(-c2cc(F)c3c(c2)OC(c2cccc(OC)c2)n2c-3cc3cc(-c4cnc([C@@H]5[C@H]6CC[C@H](C6)N5C(=O)[C@@H](NC(=O)OC)C(C)C)[nH]4)ccc32)[nH]1)C(C)C (some centres undefined) ?
Output: 0.92 nM

Task: What measured EC90 goes with COC(=O)N[C@H](C(=O)N1CC[C@H](OC)[C@H]1c1ncc(-c2cc(F)c3c(c2)OC(c2cccc(OC)c2)n2c-3cc3cc(-c4cnc([C@@H]5[C@@H](OC)CCN5C(=O)[C@@H](NC(=O)OC)C(C)C)[nH]4)ccc32)[nH]1)C(C)C (some centres undefined) ?
Output: 30 nM

Task: What measured EC90 goes with COC(=O)N[C@H](C(=O)N1CCC[C@H]1c1ncc(-c2cc(F)c3c(c2)OC(c2ccccc2)n2c-3cc3cc(-c4cnc([C@H]5[C@@H]6[C@H](CN5C(=O)[C@@H](NC(=O)OC)C(C)C)C6(C)C)[nH]4)ccc32)[nH]1)C(C)C (mixture of isomers) ?
Output: > 10 nM

Continuing:
Task: What measured EC90 goes with COC(=O)N[C@H](C(=O)N1CCC[C@H]1c1ncc(-c2cc(F)c3c(c2)OC(c2cccc(OC)c2)n2c-3cc3cc(-c4cnc([C@@H]5CCCN5C(=O)[C@@H](NC(=O)OC)C(C)C)[nH]4)ccc32)[nH]1)C(C)C (some centres undefined) ?
Output: 0.07 nM
